Each recorded value in this set is attributed to the CheMixHub viscosity set.

viscosity reference
Procedure text: xn = mol fraction of the nth substance listed
Test context: 308.15 K; 101 kPa; x2 = 0.35
± gives the uncertainty stated by the source.

- Molecule: "CCCCCCCCCO + CCCCO"
  viscosity: "4.623 ± 0.044 mPa·s"
- Molecule: "CCCCCCCCCO + CO"
  viscosity: "3.925 ± 0.036 mPa·s"
- Molecule: "CCCCCCCCCO + CCO"
  viscosity: "4.347 ± 0.04 mPa·s"
- Molecule: "CCCCCCCCCO + CCCO"
  viscosity: "4.542 ± 0.043 mPa·s"

###

Procedure text: xn = mol fraction of the nth substance listed
Test context: 308.15 K; 101 kPa; x2 = 0.05
± gives the uncertainty stated by the source.
viscosity reference
Property name: viscosity

- Compound: "CCCCCCCCCO + CO"
  Property name: "viscosity"
  Assay value: "6.146 ± 0.058 mPa·s"
- Compound: "CCCCCCCCCO + CCCO"
  Property name: "viscosity"
  Assay value: "6.217 ± 0.059 mPa·s"
- Compound: "CCCCCCCCCO + CCO"
  Property name: "viscosity"
  Assay value: "6.193 ± 0.058 mPa·s"
- Compound: "CCCCCCCCCO + CCCCO"
  Property name: "viscosity"
  Assay value: "6.182 ± 0.058 mPa·s"

###

Procedure text: xn = mol fraction of the nth substance listed
Test context: 318.15 K; 101 kPa; x2 = 0.7
viscosity reference

- Compound: "CCCCCCCCCO + CCCO"
  Units label: "mPa·s"
  viscosity: 2.161
- Compound: "CCCCCCCCCO + CCO"
  Units label: "mPa·s"
  viscosity: 1.858
- Compound: "CCCCCCCCCO + CCCCO"
  Units label: "mPa·s"
  viscosity: 2.335
- Compound: "CCCCCCCCCO + CO"
  Units label: "mPa·s"
  viscosity: 1.417

###

Procedure text: xn = mol fraction of the nth substance listed
Test context: 318.15 K; 101 kPa; x2 = 0.8

- Molecule: "CCCCCCCCCO + CCCO"
  viscosity, mPa·s: 1.819
- Molecule: "CCCCCCCCCO + CO"
  viscosity, mPa·s: 1.023
- Molecule: "CCCCCCCCCO + CCO"
  viscosity, mPa·s: 1.466
- Molecule: "CCCCCCCCCO + CCCCO"
  viscosity, mPa·s: 2.064

###

Procedure text: xn = mol fraction of the nth substance listed
Test context: 298.15 K; 101 kPa; x2 = 0.25
Property name: viscosity (mPa·s)

- Compound: "CCCCCCCCCO + CCCO"
  Assay value: 7.022
- Compound: "CCCCCCCCCO + CO"
  Assay value: 6.245
- Compound: "CCCCCCCCCO + CCCCO"
  Assay value: 7.062
- Compound: "CCCCCCCCCO + CCO"
  Assay value: 6.791

###

Test context: 303.15 K; 100 kPa
viscosity reference

- Compound: "CCCCCCCC[P+](CC)(CC)CC.O=[N+]([O-])c1cn[n-]c1"
  Units label: "mPa·s"
  viscosity: 207
- Compound: "CN(C)CCCO"
  Units label: "mPa·s"
  viscosity: 5.228
- Compound: "CC1CCCCC1=O (centres undefined)"
  Units label: "mPa·s"
  viscosity: 2.225
- Compound: "CCCCCCCCCO"
  Units label: "mPa·s"
  viscosity: 7.967

###

viscosity reference
Procedure text: xn = mol fraction of the nth substance listed
Test context: 308.15 K; 101 kPa; x2 = 0.25

- Molecule: "CCCCCCCCCO + CCO"
  viscosity [mPa·s]: 4.945
- Molecule: "CCCCCCCCCO + CCCCO"
  viscosity [mPa·s]: 5.089
- Molecule: "CCCCCCCCCO + CCCO"
  viscosity [mPa·s]: 5.076
- Molecule: "CCCCCCCCCO + CO"
  viscosity [mPa·s]: 4.644

###

Procedure text: xn = mol fraction of the nth substance listed
Test context: 298.15 K; 101 kPa; x2 = 0.6
viscosity reference

- Compound: "CCCCCCCCCO + CCCO"
  Units label: "mPa·s"
  viscosity: 4.352
- Compound: "CCCCCCCCCO + CCO"
  Units label: "mPa·s"
  viscosity: 3.769
- Compound: "CCCCCCCCCO + CO"
  Units label: "mPa·s"
  viscosity: 2.902
- Compound: "CCCCCCCCCO + CCCCO"
  Units label: "mPa·s"
  viscosity: 4.71

###

viscosity reference
Procedure text: xn = mol fraction of the nth substance listed
Test context: 298.15 K; 101 kPa; x2 = 0.1

- Compound: "CCCCCCCCCO + CCCO"
  viscosity (mPa·s): 8.263
- Compound: "CCCCCCCCCO + CO"
  viscosity (mPa·s): 7.93
- Compound: "CCCCCCCCCO + CCCCO"
  viscosity (mPa·s): 8.219
- Compound: "CCCCCCCCCO + CCO"
  viscosity (mPa·s): 8.168

###

Procedure text: xn = mol fraction of the nth substance listed
Test context: 318.15 K; 101 kPa; x2 = 0.4

- Compound: "CCCCCCCCCO + CCCO"
  viscosity [mPa·s]: 3.223
- Compound: "CCCCCCCCCO + CCO"
  viscosity [mPa·s]: 3.074
- Compound: "CCCCCCCCCO + CO"
  viscosity [mPa·s]: 2.756
- Compound: "CCCCCCCCCO + CCCCO"
  viscosity [mPa·s]: 3.251

###

viscosity reference
Test context: 313.15 K; 100 kPa

- Compound: "CC(=O)N(C)C"
  Units label: "mPa·s"
  viscosity: 0.765
- Compound: "CN(C)CCCO"
  Units label: "mPa·s"
  viscosity: 4.007
- Compound: "CC1CCCCC1=O (centres undefined)"
  Units label: "mPa·s"
  viscosity: 2.111
- Compound: "CCCCCCCC[P+](CC)(CC)CC.O=[N+]([O-])c1cn[n-]c1"
  Units label: "mPa·s"
  viscosity: 119

###

Procedure text: xn = mol fraction of the nth substance listed
Test context: 298.15 K; 101 kPa; x2 = 0.85

- Compound: "CCCCCCCCCO + CO"
  viscosity, mPa·s: 1.212
- Compound: "CCCCCCCCCO + CCO"
  viscosity, mPa·s: 1.946
- Compound: "CCCCCCCCCO + CCCCO"
  viscosity, mPa·s: 3.234
- Compound: "CCCCCCCCCO + CCCO"
  viscosity, mPa·s: 2.712

###

Procedure text: xn = mol fraction of the nth substance listed
Test context: 298.15 K; 101 kPa; x2 = 0.45
± gives the uncertainty stated by the source.
Property name: viscosity

- Compound: "CCCCCCCCCO + CO"
  Property name: "viscosity"
  Assay value: "4.214 ± 0.039 mPa·s"
- Compound: "CCCCCCCCCO + CCCO"
  Property name: "viscosity"
  Assay value: "5.447 ± 0.052 mPa·s"
- Compound: "CCCCCCCCCO + CCO"
  Property name: "viscosity"
  Assay value: "5.019 ± 0.047 mPa·s"
- Compound: "CCCCCCCCCO + CCCCO"
  Property name: "viscosity"
  Assay value: "5.681 ± 0.054 mPa·s"

###

Procedure text: xn = mol fraction of the nth substance listed
Test context: 298.15 K; 101 kPa; x2 = 0.65
Property name: viscosity (mPa·s)

- Compound: "CCCCCCCCCO + CCCCO"
  Property name: "viscosity"
  Units label: "mPa·s"
  Assay value: 4.397
- Compound: "CCCCCCCCCO + CCCO"
  Property name: "viscosity"
  Units label: "mPa·s"
  Assay value: 4.005
- Compound: "CCCCCCCCCO + CCO"
  Property name: "viscosity"
  Units label: "mPa·s"
  Assay value: 3.375
- Compound: "CCCCCCCCCO + CO"
  Property name: "viscosity"
  Units label: "mPa·s"
  Assay value: 2.511

###

Procedure text: xn = mol fraction of the nth substance listed
Test context: 298.15 K; 101 kPa; x2 = 0.9
± gives the uncertainty stated by the source.

- Compound: "CCCCCCCCCO + CCCO"
  viscosity: "2.412 ± 0.022 mPa·s"
- Compound: "CCCCCCCCCO + CO"
  viscosity: "0.9583 ± 0.0084 mPa·s"
- Compound: "CCCCCCCCCO + CCO"
  viscosity: "1.635 ± 0.014 mPa·s"
- Compound: "CCCCCCCCCO + CCCCO"
  viscosity: "2.977 ± 0.027 mPa·s"

###

Procedure text: xn = mol fraction of the nth substance listed
Test context: 318.15 K; 101 kPa; x2 = 0.2
viscosity reference

- Molecule: "CCCCCCCCCO + CCO"
  viscosity, mPa·s: 3.874
- Molecule: "CCCCCCCCCO + CCCCO"
  viscosity, mPa·s: 3.941
- Molecule: "CCCCCCCCCO + CCCO"
  viscosity, mPa·s: 3.929
- Molecule: "CCCCCCCCCO + CO"
  viscosity, mPa·s: 3.716
